Values from the supplement of paper PMC10567573

# protein stability index per entry
B1: SNAP91 (parent)
chain: FAAPSPATTASPAKVDSSGVIDLF

Variants of: B1
procedure-text: protein stability index of a GFP-peptide fusion (GPS, HEK-293T) (PSI 1-6); higher = more stable;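 further: lentivirally expressed fusions sorted by FACS into six bins by GFP to DsRed ratio, PSI derived from sequencing read proportions per bin multiplied by bin number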
condition-notes: c terminus: a fixed tail appended
// no unit, no text: just the number

Request: Which protein stability index value is on record for FAAPSPATTASPAKFDSSGVIDLF [V15F] ?
Result: 1.97

Request: Same question for FAAPSPATTASPAGVDSSGVIDLF [K14G] please.
Result: 2.05
